Value source: ChEMBL document CHEMBL2380309

Below, each entry is listed with its recorded selectivity ratio.
test: Selectivity index, ratio of CC50 for human MT2 cells to EC50 for HIV1; type: toxicity, cell-based; settings: read-out: Ratio CC50/EC50

input: Quick one: selectivity ratio for Nc1ccn([C@@H]2O[C@@](CO)(n3ccnn3)[C@@H](O)[C@@H]2F)c(=O)n1 ?
output: > 278

input: For CC(C)(C)c1cn([C@]2(CO)O[C@@H](n3ccc(N)nc3=O)[C@@H](F)[C@@H]2O)nn1 then?
output: > 278

input: For Nc1ccn([C@@H]2O[C@@](CO)(n3cc(-c4ccccc4)nn3)[C@@H](O)[C@@H]2F)c(=O)n1 then?
output: > 278
